The measurements presented in this section are drawn from PubChem BioAssay (EPA / NIEHS).

Experiment: ATG_MRE_CIS: Attagene CIS-FACTORIAL HepG2 Assay for human Metal Responsive Element (MRE) (AID 2282954)
Conditions: HepG2 MRE cis-reporter transcription, Attagene multiplex; actives raise or lower the signal
Activity calls are given as the source filed them. How the source made its calls: active means hit-call score of the fitted dose curve at least 0.9, where 1 is the maximum; inactive means score below 0.9.
The reply should name one outcome from active, inactive

For CCN(CC)c1ccccc1 , what call appears in the results of this test? inactive

For c1cc2c3c(cccc3c1)CC2 , what call appears in the results of this test? inactive

For CN(C)C(=O)Cl , what call appears in the results of this test? inactive

For N#C/C=C/c1ccccc1 , what call appears in the results of this test? inactive

For ClC(Cl)(Cl)c1ccccc1 , what call appears in the results of this test? inactive

For CC(C)(C)c1ccc(O)cc1 , what call appears in the results of this test? active

For OCC(F)(F)OC(F)(F)C(F)(F)OC(F)(F)C(F)(F)OC(F)(F)CO , what call appears in the results of this test? inactive

For CC1=C(C(=O)Nc2ccccc2)S(=O)(=O)CCO1 , what call appears in the results of this test? active

For CC(Cc1ccc(OCC(=O)O)cc1)NCC(O)c1csc(C(F)(F)F)n1 (configuration not stated) , what call appears in the results of this test? inactive

For CC(Cl)(Cl)C(=O)O , what call appears in the results of this test? inactive

For CCC(C)(C)c1ccc(O)cc1 , what call appears in the results of this test? inactive

For CC(=O)CCc1ccc2c(c1)OCO2 , what call appears in the results of this test? inactive

For Cn1[nH]nnc1=S , what call appears in the results of this test? inactive

For O=P(Oc1ccccc1)(Oc1ccccc1)Oc1ccccc1 , what call appears in the results of this test? active

For N#Cc1c(-c2ccc(Cl)cc2)[nH]c(C(F)(F)F)c1Br , what call appears in the results of this test? active

For ClC1=C(Cl)C2(Cl)C3C(Cl)C(Cl)CC3C1(Cl)C2(Cl)Cl (configuration not stated) , what call appears in the results of this test? active

For CC1(C)CN=C(NN=C(/C=C/c2ccc(C(F)(F)F)cc2)/C=C/c2ccc(C(F)(F)F)cc2)NC1 , what call appears in the results of this test? active

For CC(O)C#N (configuration not stated) , what call appears in the results of this test? inactive

For O=C(O)C(F)(F)OC(F)(F)C(F)(F)OC(F)(F)F , what call appears in the results of this test? inactive

For c1ccc2c(c1)sc1ccccc12 , what call appears in the results of this test? inactive

For O=NN1CCCC1 , what call appears in the results of this test? inactive

For NNC(N)=S , what call appears in the results of this test? inactive

For CNC(=O)Oc1ccc(N(C)C)c(C)c1 , what call appears in the results of this test? inactive

For O=C(CBr)OCc1ccccc1 , what call appears in the results of this test? inactive

For CCOS(=O)(=O)OCC , what call appears in the results of this test? inactive

For COCCOCCO , what call appears in the results of this test? inactive

For OCC(F)(F)OC(F)(F)C(F)(F)OC(F)(F)CO , what call appears in the results of this test? inactive

For c1nc[nH]n1 , what call appears in the results of this test? inactive

For O=[N+]([O-])c1ccccc1 , what call appears in the results of this test? inactive

For CCOP(=S)(OCC)SCn1nnc2ccccc2c1=O , what call appears in the results of this test? active

For CCOP(=S)(OCC)SCSc1ccc(Cl)cc1 , what call appears in the results of this test? inactive

For OCC1CO1 (configuration not stated) , what call appears in the results of this test? inactive

For Nc1ccc([N+](=O)[O-])cc1Cl , what call appears in the results of this test? inactive

For CC(C)(C)N(NC(=O)c1ccc(Cl)cc1)C(=O)c1ccccc1 , what call appears in the results of this test? inactive

For CC(C)CBr , what call appears in the results of this test? inactive

For CCN(CC)C1CCCCC1 , what call appears in the results of this test? inactive

For CCOP(=S)(OCC)SCSCC , what call appears in the results of this test? active

For CCCCN(CCCC)N=O , what call appears in the results of this test? inactive

For CCCCC(CC)COP(=O)(Oc1ccccc1)Oc1ccccc1 (configuration not stated) , what call appears in the results of this test? active

For N#Cc1cc([N+](=O)[O-])ccc1N , what call appears in the results of this test? inactive

For COC(=O)C(F)(F)C(F)(F)OC(F)(C(F)(F)F)C(F)(F)OC(F)=C(F)F (configuration not stated) , what call appears in the results of this test? inactive

For CC(O)C(F)(F)C(F)(F)F (configuration not stated) , what call appears in the results of this test? inactive

For Nc1ccc(Sc2ccc(N)cc2)cc1 , what call appears in the results of this test? active

For O=c1[nH]c2ccccc2c(=O)o1 , what call appears in the results of this test? inactive

For O=C(O)C(F)(F)OC(F)(F)C(F)(F)OC(F)(F)C(=O)O , what call appears in the results of this test? inactive

For CCOP(=O)(O)C(N)=O , what call appears in the results of this test? inactive

For CC(C)Nc1ccc(Nc2ccccc2)cc1 , what call appears in the results of this test? inactive

For CC(=O)c1ccc(-c2ccccc2)cc1 , what call appears in the results of this test? inactive

For O=C(O)C(F)(F)C(F)(F)C(=O)O , what call appears in the results of this test? inactive

For O=C(O)C1C(C(=O)O)C2(Cl)C(Cl)=C(Cl)C1(Cl)C2(Cl)Cl (configuration not stated) , what call appears in the results of this test? inactive

For Cc1cccc(N)c1 , what call appears in the results of this test? inactive

For O=P1(N(CCCl)CCCl)NCCCO1 (configuration not stated) , what call appears in the results of this test? inactive
